Property: IC50
# output: number + unit

For the molecule `CS(=O)(=O)c1ccccc1-c1ccc(NC(=O)c2cc(C(F)(F)F)nn2-c2cccc(CN)c2)c(F)c1` , the measured IC50 on Complement factor I (Homo sapiens) (UniProt P05156) was 44 µM
